Assignment: determine reported drug sensitivity score for the given compounds.
test system: MDA-MB-453; test: drug sensitivity score (DSS), single agent (DSS (weighted AUC score)); higher = more sensitive (stronger viability decrease); extreme values may be limits of the assay; conditions: BLU9931 0 nM; 72 h
Could you keep your reply to the number by itself?

Problem: # drug sensitivity score lookup, item Nc1nc(F)nc2c1ncn2[C@@H]1O[C@H](CO)[C@@H](O)[C@@H]1O
Solution: 0

Problem: Record request: drug sensitivity score value, item O=C(CCCCCCC(=O)Nc1ccc([C@H]2O[C@@H](CSc3nc(-c4ccccc4)c(-c4ccccc4)o3)C[C@@H](c3ccc(CO)cc3)O2)cc1)NO
Solution: 2

Problem: Returns the measured drug sensitivity score for the input compound. Input: Nc1cc(F)ccc1NC(=O)/C=C/c1cnn(C/C=C/c2ccccc2)c1
Solution: 2.6

Problem: Please look up its drug sensitivity score: O=C(NC1CCNCC1)c1n[nH]cc1NC(=O)c1c(Cl)cccc1Cl
Solution: 13.2

Problem: Any idea what drug sensitivity score was measured for COc1cc2c(Nc3ccc(Cl)c(Cl)c3F)ncnc2cc1OC[C@@H]1C[C@@H]2CN(C)C[C@@H]2C1 ?
Solution: 7.6

Problem: Which drug sensitivity score value is on record for Nc1ncnc2c1c(COc1cccc(Cl)c1)nn2C1CCOCC1 ?
Solution: 0.9

Problem: Tell me the measured drug sensitivity score of Cc1nc(C(=O)NCC(=O)O)c(O)c2ccc(Oc3ccccc3)cc12 , please.
Solution: 0

Problem: // drug sensitivity score lookup, key: CC(O)(CS(=O)(=O)c1ccc(F)cc1)C(=O)Nc1ccc(C#N)c(C(F)(F)F)c1 (centres undefined) [Bicalutamide]
Solution: 2.3

Problem: Which drug sensitivity score value is on record for CC(C)NC(=O)COc1cccc(-c2nc(Nc3ccc4[nH]ncc4c3)c3ccccc3n2)c1 ?
Solution: 5.6

Problem: Which drug sensitivity score value is on record for Cc1ccc(F)c(NC(=O)Nc2ccc(-c3cccc4[nH]nc(N)c34)cc2)c1 ?
Solution: 0

Problem: drug sensitivity score lookup needed for CC(C)N(CCCNC(=O)Nc1ccc(C(C)(C)C)cc1)C[C@H]1O[C@@H](n2cc(Br)c3c(N)ncnc32)[C@H](O)[C@@H]1O , thanks.
Solution: 0.9

Problem: What measured drug sensitivity score goes with COc1cc2ncnc(Nc3cccc(Cl)c3F)c2cc1OC(=O)N1CCN(C)C[C@H]1C ?
Solution: 0

Problem: Quick check: drug sensitivity score of C=C1C[C@@H]2CC[C@@]34C[C@H]5O[C@H]6[C@@H](O3)[C@H]3O[C@H](CC[C@@H]3O[C@H]6[C@H]5O4)CC(=O)C[C@@H]3[C@@H](OC)[C@@H](C[C@H](O)CN)O[C@H]3C[C@H]3O[C@@H](CC[C@@H]1O2)C[C@@H](C)C3=C ?
Solution: 15.5

Problem: What drug sensitivity score value was documented for this compound, C1=N/C2=N/c3ccc(OCCN4CCCC4)c(c3)COC/C=C/COCc3cccc(c3)C(=C1)N2 ?
Solution: 8.3

Problem: Look up drug sensitivity score for this compound: C[C@@H](Nc1cc(F)cc(F)c1)c1cc(C(=O)N(C)C)cc2c(=O)cc(N3CCOCC3)oc12
Solution: 1.7

Problem: Name the recorded drug sensitivity score for COc1cc2/c(=N/c3ccc(Br)cc3F)nc[nH]c2cc1OCC1CCN(C)CC1 .
Solution: 0

Problem: Which value of drug sensitivity score has been reported for COc1cc2c(N3CCN(C(=O)Nc4ccc(OC(C)C)cc4)CC3)ncnc2cc1OCCCN1CCCCC1 in the records?
Solution: 0

Problem: Quick one: drug sensitivity score for CC(C)C[C@H](NC(=O)[C@H](CCc1ccccc1)NC(=O)CN1CCOCC1)C(=O)N[C@@H](Cc1ccccc1)C(=O)N[C@@H](CC(C)C)C(=O)[C@@]1(C)CO1 ?
Solution: 24.5

Problem: # get_value(readout='drug sensitivity score', item= COc1cc2ncnc(Nc3ccc(F)c(Cl)c3)c2cc1OCCCN1CCOCC1 )
Solution: 6.9

Problem: Query: drug sensitivity score; subject: CC[C@H](CC#N)OC(=O)N[C@@H](C)c1cccc(NC(=O)Nc2ccc(-c3cnco3)c(OC)c2)c1
Solution: 7.1

Problem: Requested read-out: drug sensitivity score. Entry: CC(C)(C)c1cc(NC(=O)Nc2ccc(-c3cn4c(n3)sc3cc(OCCN5CCOCC5)ccc34)cc2)no1
Solution: 1

Problem: // returns reported drug sensitivity score for input COCCNCc1ccc(-c2cc3nccc(Oc4ccc(NC(=S)NC(=O)Cc5ccc(F)cc5)cc4F)c3s2)nc1
Solution: 0.7

Problem: Look at this compound and give its reported drug sensitivity score. CC[C@@](C)(Nc1ccnc(-c2c[nH]c3ncccc23)n1)C(=O)NCC(F)(F)F
Solution: 0

Problem: Given the compound Cc1ccc(-c2cc(C(F)(F)F)nn2-c2ccc(S(N)(=O)=O)cc2)cc1 , what is its reported drug sensitivity score?
Solution: 0.4
